# System: persistent E. coli
# measurement_notes: Bactericidal activity against persistent E. coli selected by gentamicin
# Type: cell-based, Escherichia coli
# condition_parameters: Escherichia coli; 12.5 μg/ml; read-out: Log Kill
# Experimental: Escherichia coli K12; Gram negative; Reference strain. An antibiotic (gentamicin) was added to 5-6 day stationary-phase cultures to the final concentration of 50 to 100 μg/ml for 24 hours. […] Different concentrations of each test compound were incubated with the (persister) cell suspension in 96 well plates for various periods of time (24 and 48 hours). Bactericidal activity was then determined by taking CFU counts of the resulting cultures, as described above.
Counter-ions that a name gives are not always drawn.
observation_type: log reduction at 12.5 µg/mL

1. OC(c1cc(C(F)(F)F)nc2c(C(F)(F)F)cccc12)C1CCCCN1 (centres unmarked)    0.03
2. C[n+]1cc2c3c(ccc2c2ccc4cc5c(cc4c21)OCO5)OCO3 [Sanguinarine sulfate]    1.47
3. C1CCC(C(CC2CCCCN2)C2CCCCC2)CC1 (centres unmarked) [Perhexiline maleate]    0.04
4. CCCCCCCCNC(C)C(O)c1ccc(SC(C)C)cc1 (centres unmarked)    0.02
5. N=C1C=CC(=C(c2ccc(N)cc2)c2ccc(N)cc2)C=C1 [Pararosaniline pamoate]    0.01
6. CN(C)CCCN1c2ccccc2Sc2ccc(C(F)(F)F)cc21 [Triflupromazine hydrochloride]    2.34
7. CN(C)CC/C=C1/c2ccccc2Sc2ccc(Cl)cc21 [Chlorprothixene hydrochloride]    0.03
8. CSc1ccc2c(c1)N(CCC1CCCCN1C)c1ccccc1S2 (centres unmarked) [Thioridazine hydrochloride]    0.03

###

# Test system: stationary phase E. coli
# measurement_notes: Bactericidal activity against stationary phase E. coli (CFU counts)
# Format: cell-based, Escherichia coli
# condition_parameters: Escherichia coli; 12.50 μg/ml; read-out: Log kill
Structures can show the parent of a compound that is named as a salt.
observation_type: log reduction at 12.5 µg/mL

1. COc1cccc2c1C(=O)c1c(O)c3c(c(O)c1C2=O)C[C@@](O)(C(=O)CO)C[C@@H]3O[C@H]1C[C@H](N)[C@H](O)[C@H](C)O1    6.14
2. N=C1C=CC(=C(c2ccc(N)cc2)c2ccc(N)cc2)C=C1 [Pararosaniline pamoate]    6.14
3. Oc1ccc(O)cc1 [Hydroquinone]    6.14
4. OC(c1cc(C(F)(F)F)nc2c(C(F)(F)F)cccc12)C1CCCCN1 (stereo not drawn)    6.14
5. C[n+]1cc2c3c(ccc2c2ccc4cc5c(cc4c21)OCO5)OCO3 [Sanguinarine sulfate]    2.4
6. CSc1ccc2c(c1)N(CCC1CCCCN1C)c1ccccc1S2 (stereo not drawn) [Thioridazine hydrochloride]    6.14
